# assay_explanation: Cytotoxicity against African green monkey Vero E6 cells incubated for 3 days by WST-8 assay
# Type: toxicity, cell-based, Vero C1008
# stated_conditions: chlorocebus sabaeus, time 3 day
A collection of compounds and their measured CC50 at 72 h

Look over these answered cases.
CC(C)(C)[C@H](NC(=O)C(F)(F)F)C(=O)N1C[C@@H]2CCC[C@@H]2[C@H]1C(=O)N[C@@H](C[C@@H]1CCNC1=O)C(=O)c1nc2c(F)cccc2s1 ... > 100 µM
CC(C)(C)[C@H](NC(=O)C(F)(F)F)C(=O)N1C[C@H]2[C@@H]([C@H]1C(=S)N[C@@H](C[C@@H]1CCNC1=O)C(=O)c1nc3c(F)cccc3s1)C2(C)C ... > 100 µM
CC(C)(F)[C@H](NC(=O)C(F)(F)F)C(=O)N1C[C@H]2[C@@H]([C@H]1C(=O)N[C@@H](C[C@@H]1CCNC1=O)C(=O)c1nc3c(F)cccc3s1)C2(C)C ... > 100 µM
CC(C)(C)[C@H](NC(=O)C(F)(F)F)C(=O)N1C[C@H]2[C@@H]([C@H]1C(=O)N[C@H](C#N)C[C@@H]1CCNC1=O)C2(C)C ... > 100 µM
COc1ccc(F)c2[nH]c(C(=O)N3C[C@H]4[C@@H]([C@H]3C(=O)N[C@@H](C[C@@H]3CCNC3=O)C(=O)c3nc5c(F)cccc5s3)C4(C)C)cc12 ... > 100 µM

Prompt: Fill in: CC50 at 72 h of CC(C)(C)[C@H](NC(=O)C(F)(F)F)C(=O)NC1(C(=O)N[C@@H](C[C@@H]2CCNC2=O)C(=O)c2nc3c(F)cccc3s2)CCC(F)(F)C1 (stereo partly drawn) is ___
Completion: > 100 µM

Prompt: Try the compound COc1cccc2[nH]c(C(=O)N3C[C@H]4[C@@H]([C@H]3C(=O)N[C@@H](C[C@@H]3CCNC3=O)C(=O)c3nc5ccccc5s3)C4(C)C)cc12
Completion: > 100 µM

Prompt: Try the compound CC1(C)[C@@H]2[C@@H](C(=O)N[C@@H](C[C@@H]3CCNC3=O)C(=O)c3nc4c(F)cccc4s3)N(C(=O)c3cc4c(F)ccc(F)c4[nH]3)C[C@@H]21
Completion: > 100 µM

Prompt: Try the compound COc1ccc(F)c2[nH]c(C(=O)N[C@H](C(=S)N[C@@H](C[C@@H]3CCNC3=O)C(=O)c3nc4c(F)cccc4s3)C(C)(C)C)cc12
Completion: > 100 µM

Prompt: Try the compound CC(C)C[C@H](NC(=O)[C@@H](NC(=O)C(F)(F)F)C(C)(C)C)C(=O)N[C@@H](C[C@@H]1CCNC1=O)C(=O)c1nc2c(F)cccc2s1
Completion: > 100 µM

Prompt: Try the compound COc1ccc(F)c2[nH]c(C(=O)N[C@H](C(=O)N[C@@H](C[C@@H]3CCNC3=O)C(=O)c3nc4c(F)cccc4s3)C(C)(C)C)cc12
Completion: > 100 µM

Prompt: Try the compound CC1(C)[C@@H]2[C@@H](C(=O)N[C@@H](C[C@@H]3CCNC3=O)C(=O)c3nc4c(F)cccc4s3)N(C(=O)[C@H](CC(F)(F)F)NC(=O)C(F)(F)F)C[C@@H]21
Completion: > 100 µM

Prompt: Try the compound CC(C)(C)[C@H](NC(=O)C(F)(F)F)C(=O)N1C[C@H]2[C@@H]([C@H]1C(=O)N[C@@H](C[C@@H]1CCNC1=O)C(=O)c1nc3c(Cl)cccc3s1)C2(C)C
Completion: > 100 µM

Prompt: Try the compound CC(C)(C)[C@H](NC(=O)C(F)(F)F)C(=O)N1C[C@H]2[C@@H]([C@H]1C(=O)N[C@@H](C[C@@H]1CCNC1=O)C(=O)c1nc3ccccc3s1)C2(C)C
Completion: > 100 µM

Prompt: Try the compound CC(C)(C)[C@H](NC(=O)C(F)(F)F)C(=O)N1C[C@H]2[C@@H]([C@H]1C(=O)N[C@@H](C[C@@H]1CCNC1=O)C(=O)c1nc3c(Br)cccc3s1)C2(C)C
Completion: > 100 µM

Prompt: Try the compound COc1cccc2[nH]c(C(=O)N[C@H](C(=O)N[C@@H](C[C@@H]3CCNC3=O)C(=O)c3nc4ccccc4s3)C(C)(C)C)cc12
Completion: > 100 µM

Prompt: Try the compound CC(C)(C)[C@H](NC(=O)C(F)(F)F)C(=O)N1C[C@H]2[C@@H]([C@H]1C(=O)N[C@@H](C[C@@H]1CCNC1=O)C(=O)c1nc3c(F)cccc3s1)C2(C)C
Completion: > 100 µM

Prompt: Try the compound CC1(C)[C@@H]2[C@@H](C(=O)N[C@@H](C[C@@H]3CCNC3=O)C(=O)c3nc4c(F)cccc4s3)N(C(=O)[C@H](CCC(F)(F)F)NC(=O)C(F)(F)F)C[C@@H]21
Completion: > 100 µM
